Test system: HCT-116
Assay: Cytotoxicity against HCT116 cells
Format: functional, cell-based
Conditions: Homo sapiens
For each entry below, report its pIC50 value.
Please note pIC50 is a logarithmic value: minus log10 of concentration in mol/L. Answer with that number alone.

Would you kindly share the measured pIC50 for CCCCCCCC[C@@H](O)[C@H]1CC[C@H]([C@H]2CC[C@H]([C@H](O)CCCCCCCCCC[C@@H](O)CC3=C[C@H](C)OC3=O)O2)O1 ? 9.30

Would you kindly share the measured pIC50 for CCCCCCCCCCC(O)C1CCC(C2CCC(C(O)CCCCCCCC[C@H](O)CC3=C[C@@H](C)OC3=O)O2)O1 (stereo partly drawn) [ASIMICIN] ? 8.06

Would you kindly share the measured pIC50 for C[C@H]1C=C(CCCCCCCCCCC[C@@H](O)[C@H]2CC[C@H]([C@H]3CC[C@H]([C@H](O)CCCCCCCCCCCO)O3)O2)C(=O)O1 ? 7.46
